Hello, the source for this data is the DeepSol protein solubility set, in case you need it.

test: soluble on expression in E. coli; label from the status in PepcDB or PDB records
property: soluble on expression in E. coli

Field: example entries. Status: answers known.
RSAFSKIESEEYNSLKSSTIQTIGTSDGGSGIGYIESGDYLVFNKINFGNGANSFKARVASGADTPTNIQLRLGSPTGTLIGTLTVASTGGWNNYEEKSCSITNTTGQHDLYLVFSGPVNIDYFIFDSNGVNP: soluble
MGSDKIHHHHHHMKETVYFGTYTRRTSQGIYKADFDTETGQLSNLELFAAEPSPTYLAFDQHQHLYTVGSQDDKGGIAAYQTDGTVLNHVVEEGAPHCYVAVDEKRDLVYAANYHKGQVLVYKRQEDGSLLLSDMDQHSGQGPHENQASPHVHYTDLTPDHYLVTCDLGTDQVITYDLDQEGKLSKLYTYHSKPGAGSRHIIFHNHYKIAYLICELNSTIEVLIYDGVGEFERMQVISTLPEAYEGFNGTAAIHLSKDGKYLYASNRGHDSIAVYTILADGSLELLEIVPTHGQTPRDFDLTPDQKFLIVVHQDSDNATVFKRNCDNGRLAELSNDFHVPEAVCIRFAP: not soluble
GPGSMFYKMKLERNIKVEPHLLERTLHRHLEEYLRKAVEGTPLHLSLGNALRSGLARTNQNSSAVIIAVLDILNTSSLEGRVLDDGSVSFFVKYEGLVFKLHRGEVIDVIVSSVEREGWWGDVMGVGRMYISRGQMGNEWVYESDGMRGIWITKDGARSVKEGEIVRVRVVAETPQSEGVLAVGSMVGNYLGPL: not soluble
KSNYVRVIPNPKVPTDYPAITIEMNDTVSSEQTIEALKSIERVMQEVESQTIADHGQGMIRDVLSYNRSRTEGRVLVPLVDEEIRPFNTFELARRWREAMPVIPGMKSIKIREQSAGGGDRDEFGYLLFGSNINELNQAGRYLIERLQQEEGLFDISSSIDSGSKEVLLSLAPVAYDLGLDLTMIAQQVGGSFYGGEAQRLIRDGEEIKVMVRYPQLTREAFSSLRYAVITTPAGKKVMLGDVVNISEQPGVSTIRREGGYQTVYVYGSIDEELVEPQEIVKIIDDSILPDMKKLHPSVKTELGGDIEEQAAQRNEQ: not soluble

INPUT: For `MAEPTAKAAPYENLMVPSPSMGRDIPVAFLAGGPHAVYLLDAFNAGPDVSNWVTAGNAMNTLAGKGISVVAPAGGAYSMYTNWEQDGSKQWDTFLSAELPDWLAANRGLAPGGHAAVGAAQGGYGAMALAAFHPDRFGFAGSMSGFLYPSNTTTNGAIAAGMQQFGGVDTNGMWGAPQLGRWKWHDPWVHASLLAQNNTRVWVWSPTNPGASDPAAMIGQAAEAMGNSRMFYNQYRSVGGHNGHFDFPASGDNGWGSWAPQLGAMSGDIVGAIRHHHHHH` , what is its reported soluble on expression in E. coli?
OUTPUT: soluble

INPUT: What value of soluble on expression in E. coli has been reported for the following sequence? `MAHHHHHHMQKTLFDFVRKGTSSGPAAANAVAAAHRERQWPSASNGEDSTPRTDSPPKKHAKTRREGSRSRGNSRECEGTSLKGASRDDAIDLDASVSVALLESTFPPSEEGGAIDKSKHVSSGTAVPAGAAATAAASSGTARSDAPQLQPAATSSRWLAGLITNLEWRDFLAPITVDSWRSGAFARIEHFLDGEMAKGKVILPPATDIFNAFNSCPFRDLKVVLLGQDPYHDLHQAHGLCFSVLPEVPLPPSLRNIYKELTTDIPGFQAPRHGYLQSWSEQGMLMLNATLTVEAHKANSHSKASGWTAFTDAVIQHLSQHHPNRLVFLLWGGYAQQKKKLIDASRHIVLESVHPSPLSASRGWFGCHCFSACNEALQSMGHLPMHWQLPLNASLP`
OUTPUT: not soluble
